Target: Vaccinia capping enzyme (VCE) (Vaccinia virus, UniProt P04298;P04318 P04298:1-844,P04318:1-287)
Assay: Cap50, 37 C, 30 min, 500 nM RNA, 1 mM MgCl2; 0.94 at 45 C, 4.08 at 50 C, 30.00 at 55 C
property-measured: EC50
State the value with its unit after it.

Task: For the binder GUAGAACUUCGUCGAGUACGCUCAA (ssRNA, 5' triphosphate) [RNA1] , what EC50 is on record?
Output: 3.06 nM

Source listed as patent US20210054016.
